test system: HeLa Kyoto; assay: solubility change mitosis vs G1/S (difference of NP-40 vs SDS log2 ratios) (log2 ratio difference); higher = more soluble in mitosis
measuredMetric: solubility change mitosis (log2)
Lab note: record the figure alone, no unit after it.

Look over these answered cases.
# chainSequence, solubility change mitosis (log2)
rows = [
    ("MSKSESPKEPEQLRKLFIGGLSFETTDESLRSHFEQWGTLTDCVVMRDPNTKRSRGFGFVTYATVEEVDAAMNARPHKVDGRVVEPKRAVSREDSQRPGAHLTVKKIFVGGIKEDTEEHHLRDYFEQYGKIEVIEIMTDRGSGKKRGFAFVTFDDHDSVDKIVIQKYHTVNGHNCEVRKALSKQEMASASSSQRGRSGSGNFGGGRGGGFGGNDNFGRGGNFSGRGGFGGSRGGGGYGGSGDGYNGFGNDGGYGGGGPGYSGGSRGYGSGGQGYGNQGSGYGGSGSYDSYNNGGGGGFGGGSGSNFGGGGSYNDFGNYNNQSSNFGPMKGGNFGGRSSGPYGGGGQYFAKPRNQGGYGGSSSSSSYGSGRRF [HNRNPA1]", 0.275),
    ("MVGPAPRRRLRPLAALALVLALAPGLPTARAGQTPRPAERGPPVRLFTEEELARYGGEEEDQPIYLAVKGVVFDVTSGKEFYGRGAPYNALTGKDSTRGVAKMSLDPADLTHDTTGLTAKELEALDEVFTKVYKAKYPIVGYTARRILNEDGSPNLDFKPEDQPHFDIKDEF [NENF]", -0.0192),
    ("MLLGLAAMELKVWVDGIQRVVCGVSEQTTCQEVVIALAQAIGQTGRFVLVQRLREKERQLLPQECPVGAQATCGQFASDVQFVLRRTGPSLAGRPSSDSCPPPERCLIRASLPVKPRAALGCEPRKTLTPEPAPSLSRPGPAAPVTPTPGCCTDLRGLELRVQRNAEELGHEAFWEQELRREQAREREGQARLQALSAATAEHAARLQALDAQARALEAELQLAAEAPGPPSPMASATERLHQDLAVQERQSAEVQGSLALVSRALEAAERALQAQAQELEELNRELRQCNLQQFIQQTGAALPPPPRPDRGPPGTQGPLPPAREESLLGAPSESHAGAQPRPRGGPHDAELLEVAAAPAPEWCPLAAQPQAL [RASSF7]", 0.0497),
]

Qu. API: value(readout=solubility change mitosis (log2), system=HeLa Kyoto) for record MLLLTRSPTAWHRLSQLKPRVLPGTLGGQALHLRSWLLSRQGPAETGGQGQPQGPGLRTRLLITGLFGAGLGGAWLALRAEKERLQQQKRTEALRQAAVGQGDFHLLDHRGRARCKADFRGQWVLMYFGFTHCPDICPDELEKLVQVVRQLEAEPGLPPVQPVFITVDPERDDVEAMARYVQDFHPRLLGLTGSTKQVAQASHSYRVYYNAGPKDEDQDYIVDHSIAIYLLNPDGLFTDYYGRSRSAEQISDSVRRHMAAFRSVLS [SCO2]
Ans. -0.127

Qu. Give the reported solubility change mitosis (log2) for MAACTARRALAVGSRWWSRSLTGARWPRPLCAAAGAGAFSPASTTTTRRHLSSRNRPEGKVLETVGVFEVPKQNGKYETGQLFLHSIFGYRGVVLFPWQARLYDRDVASAAPEKAENPAGHGSKEVKGKTHTYYQVLIDARDCPHISQRSQTEAVTFLANHDDSRALYAIPGLDYVSHEDILPYTSTDQVPIQHELFERFLLYDQTKAPPFVARETLRAWQEKNHPWLELSDVHRETTENIRVTVIPFYMGMREAQNSHVYWWRYCIRLENLDSDVVQLRERHWRIFSLSGTLETVRGRGVVGREPVLSKEQPAFQYSSHVSLQASSGHMWGTFRFERPDGSHFDVRIPPFSLESNKDEKTPPSGLHW [POLDIP2] (system: HeLa Kyoto).
Ans. -0.0327

Qu. Enter reported solubility change mitosis (log2) observed with HeLa Kyoto for MAAAGAPDGMEEPGMDTEAETVATEAPARPVNCLEAEAAAGAAAEDSGAARGSLQPAPAQPPGDPAAQASVSNGEDAGGGAGRELVDLKIIWNKTKHDVKFPLDSTGSELKQKIHSITGLPPAMQKVMYKGLVPEDKTLREIKVTSGAKIMVVGSTINDVLAVNTPKDAAQQDAKAEENKKEPLCRQKQHRKVLDKGKPEDVMPSVKGAQERLPTVPLSGMYNKSGGKVRLTFKLEQDQLWIGTKERTEKLPMGSIKNVVSEPIEGHEDYHMMAFQLGPTEASYYWVYWVPTQYVDAIKDTVLGKWQYF [UBFD1]
Ans. 0.0325

Qu. Report solubility change mitosis (log2) for MAAAMVPGRSESWERGEPGRPALYFCGSIRGGREDRTLYERIVSRLRRFGTVLTEHVAAAELGARGEEAAGGDRLIHEQDLEWLQQADVVVAEVTQPSLGVGYELGRAVAFNKRILCLFRPQSGRVLSAMIRGAADGSRFQVWDYEEGEVEALLDRYFEADPPGQVAASPDPTT [DNPH1] tested on HeLa Kyoto.
Ans. 0.00918

Qu. // map MHGHGGYDSDFSDDERCGESSKRKKRTVEDDLLLQKPFQKEKHGKVAHKQVAAELLDREEARNRRFHLIAMDAYQRHTKFVNDYILYYGGKKEDFKRLGENDKTDLDVIRENHRFLWNEEDEMDMTWEKRLAKKYYDKLFKEYCIADLSKYKENKFGFRWRVEKEVISGKGQFFCGNKYCDKKEGLKSWEVNFGYIEHGEKRNALVKLRLCQECSIKLNFHHRRKEIKSKKRKDKTKKDCEESSHKKSRLSSAEEASKKKDKGHSSSKKSEDSLLRNSDEEESASESELWKGPLPETDEKSQEEEFDEYFQDLFL [FRA10AC1] to recorded solubility change mitosis (log2) (system: HeLa Kyoto)
Ans. 0.365

Qu. Query solubility change mitosis (log2) on HeLa Kyoto for MEATTAGVGRLEEEALRRKERLKALREKTGRKDKEDGEPKTKHLREEEEEGEKHRELRLRNYVPEDEDLKKRRVPQAKPVAVEEKVKEQLEAAKPEPVIEEVDLANLAPRKPDWDLKRDVAKKLEKLKKRTQRAIAELIRERLKGQEDSLASAVDAATEQKTCDSD [CCDC12]
Ans. 0.156

Qu. solubility change mitosis (log2) of MDVFLMIRRHKTTIFTDAKESSTVFELKRIVEGILKRPPDEQRLYKDDQLLDDGKTLGECGFTSQTARPQAPATVGLAFRADDTFEALCIEPFSSPPELPDVMKPQDSGSSANEQAVQ [TCEB2] on HeLa Kyoto?
Ans. 0.00166

Qu. // map MASEELQKDLEEVKVLLEKATRKRVRDALTAEKSKIETEIKNKMQQKSQKKAELLDNEKPAAVVAPITTGYTVKISNYGWDQSDKFVKIYITLTGVHQVPTENVQVHFTERSFDLLVKNLNGKSYSMIVNNLLKPISVEGSSKKVKTDTVLILCRKKVENTRWDYLTQVEKECKEKEKPSYDTETDPSEGLMNVLKKIYEDGDDDMKRTINKAWVESREKQAKGDTEF [CACYBP] to recorded solubility change mitosis (log2) (system: HeLa Kyoto);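 also: synchronized HeLa Kyoto cells (double thymidine block for G1/S, nocodazole release for mitosis), protein amounts in NP-40 versus SDS lysates quantified by mass spectrometry, three biological replicates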
Ans. -0.0888

Where these numbers come from: the supplement of paper PMC5998384
